- Test system: Listeria monocytogenes
- assay.text: Antibacterial activity against Listeria monocytogenes ATCC 19115 by double-dilution technique
- Assay type: functional
quantity: MIC (µg/mL)
Numbers only, in µg/mL.

Study these solved cases before continuing.
NC[C@H]1O[C@H](O[C@H]2[C@H](O)[C@@H](O[C@@H]3O[C@H](CSCCOCCSSCCOCCSC[C@H]4O[C@@H](O[C@@H]5[C@@H](O)[C@H](O[C@H]6O[C@H](CN)[C@@H](O)C[C@H]6N)[C@@H](N)C[C@H]5N)[C@H](O)[C@@H](N)[C@@H]4O)[C@@H](O)[C@H](N)[C@H]3O)[C@H](N)C[C@@H]2N)[C@H](N)C[C@@H]1O ... 37.5
CCC[C@@H]1C[C@@H](C(=O)NC([C@H]2O[C@H](SC)[C@H](O)[C@@H](O)[C@H]2O)[C@@H](C)SCCOCCSSCCOCCSC[C@H]2O[C@@H](O[C@@H]3[C@@H](O)[C@H](O[C@H]4O[C@H](CN)[C@@H](O)C[C@H]4N)[C@@H](N)C[C@H]3N)C(O)[C@@H](N)[C@@H]2O)N(C)C1 (single isomer, unassigned) ... 18.8
NC[C@H]1O[C@H](O[C@H]2[C@H](O)[C@@H](O[C@@H]3O[C@H](CSCCOCCSSCCOCCSCC(=O)N[C@H](CO)[C@H](O)c4ccc([N+](=O)[O-])cc4)[C@@H](O)[C@H](N)[C@H]3O)[C@H](N)C[C@@H]2N)[C@H](N)C[C@@H]1O ... 18.8

# input compound: CCC[C@@H]1C[C@@H](C(=O)N[C@@H]([C@H]2O[C@H](SC)[C@H](O)[C@@H](O)[C@H]2O)[C@H](C)Cl)N(C)C1 ; wanted: its MIC 4.7

---

- System: Escherichia coli
- assay.text: Antibacterial activity against Escherichia coli MC1061 by double-dilution technique
- Format: functional
quantity: MIC (µg/mL)
One number for each entry, in µg/mL.

NC[C@H]1O[C@H](O[C@H]2[C@H](O)[C@@H](O[C@@H]3O[C@H](CSCCOCCS)[C@@H](O)[C@H](N)[C@H]3O)[C@H](N)C[C@@H]2N)[C@H](N)C[C@@H]1O ... 18.8

Provide the documented MIC with Escherichia coli as the system for NC[C@H]1O[C@H](O[C@H]2[C@H](O)[C@@H](O[C@@H]3O[C@H](CSCCOCCSSCCOCCSCC(=O)N[C@H](CO)[C@H](O)c4ccc([N+](=O)[O-])cc4)[C@@H](O)[C@H](N)[C@H]3O)[C@H](N)C[C@@H]2N)[C@H](N)C[C@@H]1O 4.7

---

- assay.text: Drug metabolism assessed as enhanced intracellular survival protein (unknown origin)-mediated conversion at 100 uM by micro plate reader analysis relative to tobramycin
- Assay type: ADME
Provide the recorded fold change (FC) for the entries that follow.
Numbers only.

NC[C@H]1O[C@H](O[C@H]2[C@H](O)[C@@H](O[C@@H]3O[C@H](CSCCOCCSCC(=O)N[C@H](CO)[C@H](O)c4ccc([N+](=O)[O-])cc4)[C@@H](O)[C@H](N)[C@H]3O)[C@H](N)C[C@@H]2N)[C@H](N)C[C@@H]1O ... 2.9
NC[C@H]1O[C@H](O[C@H]2[C@H](O)[C@@H](O[C@@H]3O[C@H](CSCCOCCSSCCOCCSCC(=O)N[C@H](CO)[C@H](O)c4ccc([N+](=O)[O-])cc4)[C@@H](O)[C@H](N)[C@H]3O)[C@H](N)C[C@@H]2N)[C@H](N)C[C@@H]1O ... 2.6
CCC[C@@H]1C[C@@H](C(=O)NC([C@H]2O[C@H](SC)[C@H](O)[C@@H](O)[C@H]2O)[C@@H](C)SCCOCCSSCCOCCSC[C@H]2O[C@@H](O[C@@H]3[C@@H](O)[C@H](O[C@H]4O[C@H](CN)[C@@H](O)C[C@H]4N)[C@@H](N)C[C@H]3N)C(O)[C@@H](N)[C@@H]2O)N(C)C1 (single isomer, unassigned) ... 2.6

Okay, now this compound:
# input compound: NC[C@H]1O[C@H](O[C@H]2[C@H](O)[C@@H](O[C@@H]3O[C@H](CSCCOCCSSCCOCCSC[C@H]4O[C@@H](O[C@@H]5[C@@H](O)[C@H](O[C@H]6O[C@H](CN)[C@@H](O)C[C@H]6N)[C@@H](N)C[C@H]5N)[C@H](O)[C@@H](N)[C@@H]4O)[C@@H](O)[C@H](N)[C@H]3O)[C@H](N)C[C@@H]2N)[C@H](N)C[C@@H]1O ; wanted: its fold change (FC) 4.1

---

- assay.text: Drug metabolism assessed as aminoglycoside 2'-N-acetyltransferase Ic (unknown origin)-mediated conversion at 100 uM by micro plate reader analysis relative to tobramycin
- Assay type: ADME
quantity: fold change (FC)
One number for each entry.

CCC[C@@H]1C[C@@H](C(=O)NC([C@H]2O[C@H](SC)[C@H](O)[C@@H](O)[C@H]2O)[C@@H](C)SCCOCCSSCCOCCSC[C@H]2O[C@@H](O[C@@H]3[C@@H](O)[C@H](O[C@H]4O[C@H](CN)[C@@H](O)C[C@H]4N)[C@@H](N)C[C@H]3N)C(O)[C@@H](N)[C@@H]2O)N(C)C1 (single isomer, unassigned) ... 1.6
NC[C@H]1O[C@H](O[C@H]2[C@H](O)[C@@H](O[C@@H]3O[C@H](CSCCOCCSSCCOCCSCC(=O)N[C@H](CO)[C@H](O)c4ccc([N+](=O)[O-])cc4)[C@@H](O)[C@H](N)[C@H]3O)[C@H](N)C[C@@H]2N)[C@H](N)C[C@@H]1O ... 1.6
NC[C@H]1O[C@H](O[C@H]2[C@H](O)[C@@H](O[C@@H]3O[C@H](CSCCOCCSCC(=O)N[C@H](CO)[C@H](O)c4ccc([N+](=O)[O-])cc4)[C@@H](O)[C@H](N)[C@H]3O)[C@H](N)C[C@@H]2N)[C@H](N)C[C@@H]1O ... 2

# input compound: NC[C@H]1O[C@H](O[C@H]2[C@H](O)[C@@H](O[C@@H]3O[C@H](CSCCOCCSSCCOCCSC[C@H]4O[C@@H](O[C@@H]5[C@@H](O)[C@H](O[C@H]6O[C@H](CN)[C@@H](O)C[C@H]6N)[C@@H](N)C[C@H]5N)[C@H](O)[C@@H](N)[C@@H]4O)[C@@H](O)[C@H](N)[C@H]3O)[C@H](N)C[C@@H]2N)[C@H](N)C[C@@H]1O ; wanted: its fold change (FC) 2.4

---

- System: Escherichia coli
- assay.text: Antibacterial activity against Escherichia coli MC1061 by double-dilution technique
- Type: functional
quantity: MIC (µg/mL)
Answers are plain numbers, in µg/mL.

Study these solved cases before continuing.
CCC[C@@H]1C[C@@H](C(=O)N[C@@H]([C@H]2O[C@H](SC)[C@H](O)[C@@H](O)[C@H]2O)[C@H](C)Cl)N(C)C1 ... 2.3
CCC[C@@H]1C[C@@H](C(=O)N[C@H]([C@H]2O[C@H](SC)[C@H](O)[C@@H](O)[C@H]2O)[C@@H](C)SCCOCCS)N(C)C1 ... 37.5

Okay, now this compound:
# input compound: NC[C@H]1O[C@H](O[C@H]2[C@H](O)[C@@H](O[C@H]3O[C@H](CO)[C@@H](O)[C@H](N)[C@H]3O)[C@H](N)C[C@@H]2N)[C@H](N)C[C@@H]1O ; wanted: its MIC 9.4

---

- Tested on: Escherichia coli
- assay.text: Inhibition of protein synthesis in Escherichia coli S30 extracts after 90 mins by coupled transcription/translation assay
- Format: functional
- reported.conditions: 1.5 h
quantity: log10 of IC50 (log10 of the value in µM)
Values below are the log10 of the recorded IC50, with µM as the unit.

Study these solved cases before continuing.
NC[C@H]1O[C@H](O[C@H]2[C@H](O)[C@@H](O[C@@H]3O[C@H](CSCCOCCSSCCOCCSC[C@H]4O[C@@H](O[C@@H]5[C@@H](O)[C@H](O[C@H]6O[C@H](CN)[C@@H](O)C[C@H]6N)[C@@H](N)C[C@H]5N)[C@H](O)[C@@H](N)[C@@H]4O)[C@@H](O)[C@H](N)[C@H]3O)[C@H](N)C[C@@H]2N)[C@H](N)C[C@@H]1O ... -0.57
O=C(CSCCOCCS)N[C@H](CO)[C@H](O)c1ccc([N+](=O)[O-])cc1 ... 1.69
CCC[C@@H]1C[C@@H](C(=O)N[C@H]([C@H]2O[C@H](SC)[C@H](O)[C@@H](O)[C@H]2O)[C@@H](C)SCCOCCSCC(=O)N[C@H](CO)[C@H](O)c2ccc([N+](=O)[O-])cc2)N(C)C1 ... 1.17

Record log10 of IC50 for all entries; do not skip any.
1. CCC[C@@H]1C[C@@H](C(=O)N[C@H]([C@H]2O[C@H](SC)[C@H](O)[C@@H](O)[C@H]2O)[C@@H](C)SCCOCCSSCCOCCSCC(=O)N[C@@H](CO)[C@H](O)c2ccc([N+](=O)[O-])cc2)N(C)C1
2. O=C(CSCCOCCSSCCOCCSCC(=O)N[C@H](CO)[C@H](O)c1ccc([N+](=O)[O-])cc1)N[C@H](CO)[C@H](O)c1ccc([N+](=O)[O-])cc1
3. O=C(N[C@H](CO)[C@H](O)c1ccc([N+](=O)[O-])cc1)C(Cl)Cl
4. CCC[C@@H]1C[C@@H](C(=O)N[C@@H]([C@H]2O[C@H](SC)[C@H](O)[C@@H](O)[C@H]2O)[C@H](C)Cl)N(C)C1

[1.26, 1.41, 0.81, 1.26]

Record log10 of IC50 for all entries; do not skip any.
1. NC[C@H]1O[C@H](O[C@H]2[C@H](O)[C@@H](O[C@H]3O[C@H](CO)[C@@H](O)[C@H](N)[C@H]3O)[C@H](N)C[C@@H]2N)[C@H](N)C[C@@H]1O
2. NC[C@H]1O[C@H](O[C@H]2[C@H](O)[C@@H](O[C@@H]3O[C@H](CSCCOCCSCC(=O)N[C@H](CO)[C@H](O)c4ccc([N+](=O)[O-])cc4)[C@@H](O)[C@H](N)[C@H]3O)[C@H](N)C[C@@H]2N)[C@H](N)C[C@@H]1O

1. -1.82
2. 0.17

The reported numbers originate from ChEMBL document CHEMBL2417431.
